# subject of test: EGFR WT in Ba/F3 cells (Homo sapiens (Human))
# protocol: Ba/F3 pEGFR assay (AlphaLISA p-EGFR Tyr1068)
# conditions used: 2 hrs treatment, media supplemented with EGF
Each entry below carries its reported IC50.
Your answer should be a plain number; it is taken to be in µM.

Below are worked cases with known answers.
CN1CCN(Cc2ccc3[nH]/c(=N\C(=O)c4cc(Oc5cccc(O)c5C=O)c5sccc5c4)n(CC(C)(C)O)c3c2)CC1 [Compound 107]	2.98
CC(C)(O)Cn1/c(=N/C(=O)c2ccnc(-c3cccc(-c4cccc(O)c4C=O)c3)c2)[nH]c2ccccc21 [Compound 130]	6.43
CN1CCN(Cc2ccc3[nH]/c(=N\C(=O)c4ccc(Oc5cccc(O)c5C=O)s4)n(CC(C)(C)O)c3c2)CC1 [Compound 73]	5
COCCN1CCN(Cc2ccc3[nH]/c(=N\C(=O)c4ccnc(Oc5cccc(O)c5C=O)c4)n(CC(C)(C)O)c3c2)CC1 [Compound 75]	3

Query compound follows.
Given the entry O=Cc1c(O)cccc1Oc1cc(C(=O)/N=c2\[nH]c3ccccc3n2[C@H]2CC[C@@H](O)CC2)ccn1 [Compound 122] , report its measured IC50.
5.26

* * *

# subject of test: EGFR WT (Homo sapiens (Human))
measurement name: IC50

Known IC50 results, listed for orientation:
COc1cc(N(C)CCN(C)C)ccc1Nc1ncc(-c2ccc(O)c(C=O)c2)c(-c2cn(C)c3ccccc23)n1	> 1000 nM
COc1cc(N2CCC(N3CCN(C)CC3)CC2)ccc1Nc1ncc(-c2ccc(C=O)c(O)c2)c(Nc2ccccc2P(C)(C)=O)n1	10.8 nM
CC(C)(O)Cn1/c(=N/C(=O)c2ccnc(Nc3cccc(C=O)c3O)c2)[nH]c2ccccc21	> 1000 nM

Lookup: IC50 / EGFR WT (Homo sapiens (Human)) / COc1cc(N2CCC(N3CCN(C)CC3)CC2)ccc1Nc1ncc(Cl)c(Oc2ccccc2-c2cccc(O)c2C=O)n1
> 1000 nM

Notebook entry, EGFR WT (Homo sapiens (Human)) assay: IC50 of CC(C)(O)Cn1/c(=N/C(=O)c2ccnc(-c3ccc(-c4cccc(O)c4C=O)cc3)c2)[nH]c2ccccc21 = ?
> 1000 nM

Item COc1cc(N2CCC(N3CCN(C)CC3)CC2)ccc1Nc1ncc(-c2ccc(NC(C)=O)c(C=O)c2)c(Nc2ccccc2)n1 with EGFR WT (Homo sapiens (Human)) - IC50?
> 1000 nM

* * *

# subject of test: EGFR WT in Ba/F3 cells (Homo sapiens (Human))
# protocol: Ba/F3 pEGFR assay (AlphaLISA p-EGFR Tyr1068)
# conditions used: 2 hrs treatment, media supplemented with EGF
# Protocol: Cellular activity was determined using the Ba/F3 system for studying oncogenic mutant kinases (Warmuth 2007). […] Transduced cells were maintained in RPMI 1640 with 10% FBS. EGFR WT transduced cells were grown in media supplemented with EGF. […] Subsequently, p-EGFR (Tyr1068) was quantified using a commercial sandwich immunoassay (PerkinElmer AlphaLISA SureFire assay; ALSU-PEGFR) according to the manufacturer's instructions. […]
measurement name: IC50

CN1CCN(Cc2ccc3[nH]/c(=N\C(=O)c4cc(F)cc(Oc5cccc(O)c5C=O)c4)n(CC(C)(C)O)c3c2)CC1 [Compound 53]	> 8.18 µM

Look up IC50 for this molecule: COc1cc(N2CCC(N3CCN(C)CC3)CC2)ccc1Nc1ncc(Cl)c(Nc2ccc(O)c(C=O)c2)n1 [Compound 35]
> 10 µM

Look up IC50: COc1cc(N(C)CCN(C)C)ccc1Nc1ncc(-c2ccc(O)c(C=O)c2)c(-c2cn(C)c3ccccc23)n1 [Compound 8]
> 10 µM

Requested read-out: IC50. Entry: COc1cc(N(C)CCN(C)C)c(NC(C)=O)cc1Nc1nccc(-c2cn(Cc3cccc(O)c3C=O)c3ccccc23)n1 [Compound 28]
> 10 µM

* * *

# subject of test: EGFR WT in Ba/F3 cells (Homo sapiens (Human), UniProt P00533)
# Sequence (P00533 25-1210): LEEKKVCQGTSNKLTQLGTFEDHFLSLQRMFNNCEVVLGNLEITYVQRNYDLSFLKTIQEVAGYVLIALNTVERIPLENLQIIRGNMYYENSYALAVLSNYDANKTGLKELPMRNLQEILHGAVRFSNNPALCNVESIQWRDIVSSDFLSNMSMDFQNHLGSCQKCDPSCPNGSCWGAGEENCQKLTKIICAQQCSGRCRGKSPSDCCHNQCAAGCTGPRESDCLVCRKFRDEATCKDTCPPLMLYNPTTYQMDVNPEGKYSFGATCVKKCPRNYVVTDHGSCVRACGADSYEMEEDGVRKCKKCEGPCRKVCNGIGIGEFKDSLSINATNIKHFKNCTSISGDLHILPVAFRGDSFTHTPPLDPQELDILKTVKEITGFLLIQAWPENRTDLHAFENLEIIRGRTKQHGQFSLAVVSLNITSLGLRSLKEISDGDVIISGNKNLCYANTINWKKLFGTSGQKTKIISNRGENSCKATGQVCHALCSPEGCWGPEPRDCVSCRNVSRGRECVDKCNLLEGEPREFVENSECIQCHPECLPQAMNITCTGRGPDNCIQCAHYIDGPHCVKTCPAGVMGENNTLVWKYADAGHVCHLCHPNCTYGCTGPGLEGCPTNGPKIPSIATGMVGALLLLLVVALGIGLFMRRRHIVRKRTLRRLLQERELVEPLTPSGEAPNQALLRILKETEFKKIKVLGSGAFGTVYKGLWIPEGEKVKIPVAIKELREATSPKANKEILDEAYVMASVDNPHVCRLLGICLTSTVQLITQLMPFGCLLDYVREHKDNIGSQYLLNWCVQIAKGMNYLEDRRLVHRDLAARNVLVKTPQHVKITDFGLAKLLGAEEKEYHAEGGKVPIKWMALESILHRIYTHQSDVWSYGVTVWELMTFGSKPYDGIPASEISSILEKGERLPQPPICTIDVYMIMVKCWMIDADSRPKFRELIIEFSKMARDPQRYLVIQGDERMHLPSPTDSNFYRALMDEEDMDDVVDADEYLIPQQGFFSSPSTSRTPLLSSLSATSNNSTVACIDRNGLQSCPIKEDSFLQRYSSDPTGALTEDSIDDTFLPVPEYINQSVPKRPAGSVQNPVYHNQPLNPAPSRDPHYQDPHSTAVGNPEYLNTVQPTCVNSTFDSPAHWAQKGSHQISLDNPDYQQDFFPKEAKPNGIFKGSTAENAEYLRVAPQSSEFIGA
# protocol: Ba/F3 pEGFR assay (AlphaLISA p-EGFR Tyr1068)
# conditions used: 2 hrs treatment, media supplemented with EGF
Listing: IC50 of selected compounds

Would you please look over these solved cases?
CN1CCN(Cc2ccc3[nH]/c(=N\C(=O)c4ccnc(C#Cc5ccc(F)c(O)c5C=O)c4)n(CC(C)(C)O)c3c2)CC1	> 10 µM
CN1CCN(Cc2ccc3[nH]/c(=N\C(=O)c4cc(Cl)nc(Cc5cccc(O)c5C=O)c4)n(CC(C)(C)O)c3c2)CC1	> 10 µM

Now look at this entry.
Which IC50 value belongs to CN1CCN(Cc2ccc3[nH]/c(=N\C(=O)c4cccc(Oc5cccc(O)c5C=O)n4)n(CC(C)(C)O)c3c2)CC1 ?
> 10 µM

These measurements were taken from patent US20240409609A1.
